Cited source: patent US7091040B1

# experiment.notes: Bystander effect on viability of MDA-MB-361 cells co-cultured with H1A2 MZ cells in the presence of acetaminophen, trypan blue exclusion
# Format: cell-based, human
# study.conditions: human, MDA-MB-361 cells + 10% H1A2 MZ cells; 4 mM acetaminophen in PBS; 6 h
quantity.name: viability at 6 h, 4 mM (%)
Answers are plain numbers, in %.

Specify viability at 6 h, 4 mM for CC(=O)Nc1ccc(O)cc1 [acetaminophen] and stop.
74

* * *

# experiment.notes: Bystander effect on viability of MDA-MB-361 cells co-cultured with H1A2 MZ cells in the presence of acetaminophen, trypan blue exclusion
# Assay type: cell-based, human
# study.conditions: human, MDA-MB-361 cells + 25% H1A2 MZ cells; 4 mM acetaminophen in PBS; 6 h
quantity.name: viability at 6 h, 4 mM (%)
One number for each entry, in %.

Look up and state reported viability at 6 h, 4 mM for CC(=O)Nc1ccc(O)cc1 [acetaminophen]
70

* * *

# experiment.notes: Bystander effect on viability of MDA-MB-361 cells co-cultured with H1A2 MZ cells in the presence of acetaminophen, trypan blue exclusion
# Format: cell-based, human
# study.conditions: human, MDA-MB-361 cells + 25% H1A2 MZ cells; 4 mM acetaminophen 6 h, then 48 h in culture medium
quantity.name: viability at 4 mM (%)
Numbers only, in %.

Please report viability at 4 mM for the following molecule: CC(=O)Nc1ccc(O)cc1
91

* * *

# experiment.notes: Viability of V79 MZ cells, alone or co-cultured with H1A2 MZ cells (bystander effect), with acetaminophen, trypan blue exclusion
# Assay type: cell-based, Chinese hamster
# study.conditions: Chinese hamster, V79 MZ cells + 10% H1A2 MZ cells; 4 mM acetaminophen in PBS; 6 h
quantity.name: viability at 6 h, 4 mM

Entry CC(=O)Nc1ccc(O)cc1 needs its viability at 6 h, 4 mM filled in; supply it.
39%

* * *

# experiment.notes: Bystander effect on viability of MDA-MB-361 cells co-cultured with H1A2 MZ cells in the presence of acetaminophen, trypan blue exclusion
# Assay type: cell-based, human
# study.conditions: human, MDA-MB-361 cells + 10% H1A2 MZ cells; 4 mM acetaminophen 6 h, then 48 h in culture medium
quantity.name: viability at 4 mM (%)
Numbers only, in %.

Return reported viability at 4 mM. Input molecule: CC(=O)Nc1ccc(O)cc1 [acetaminophen]
94

* * *

# experiment.notes: Bystander effect on viability of MDA-MB-361 cells co-cultured with H1A2 MZ cells in the presence of acetaminophen, trypan blue exclusion
# Type: cell-based, human
# study.conditions: human, MDA-MB-361 cells + 50% H1A2 MZ cells; 4 mM acetaminophen 6 h, then 48 h in culture medium
quantity.name: viability at 4 mM

Respond only with viability at 4 mM recorded for CC(=O)Nc1ccc(O)cc1
0%

* * *

# experiment.notes: Viability of V79 MZ cells, alone or co-cultured with H1A2 MZ cells (bystander effect), with acetaminophen, trypan blue exclusion
# Format: cell-based, Chinese hamster
# study.conditions: Chinese hamster, V79 MZ cells + 50% H1A2 MZ cells; 4 mM acetaminophen 6 h, then 24 h in culture medium
quantity.name: viability at 4 mM (%)
Give bare numbers, in %.

Report viability at 4 mM, nothing else, for this molecule: CC(=O)Nc1ccc(O)cc1
0

* * *

# experiment.notes: Viability of V79 MZ cells, alone or co-cultured with H1A2 MZ cells (bystander effect), with acetaminophen, trypan blue exclusion
# Assay type: cell-based, Chinese hamster
# study.conditions: Chinese hamster, V79 MZ cells + 10% H1A2 MZ cells; 4 mM acetaminophen in PBS; 0 h
# Method: Table 1 represents the bystander effect on viability produced by incubating H1A2 MZ cells (stably transfected with human CYP1A2) with various cell-lines in the presence of acetaminophen. […] At 0, 6, 24 or 48 h the cells were washed in PBS and viability of the mixed cell population determined by trypan blue exclusion. […] Viability was determined in a total of 1500 cells at each time point. […]
quantity.name: viability at 0 h, 4 mM (%)
Give bare numbers, in %.

In one line, give reported viability at 0 h, 4 mM of the entry CC(=O)Nc1ccc(O)cc1 .
98
